Tested on: P388 leukemia ip, CD2F1 mice, survival T/C
Assay: NCI In Vivo Anticancer Drug Screen. Data for tumor model P388 Leukemia (intraperitoneal) in CD2F1 (CDF1) mice
Settings: endpoint: median survival time; dose: 100.0 mg/kg/injection; schedule: Q01DX001 (ip); vehicle: Klucel (hydroxypropylcellulose) (HPC); higher = longer survival
Inconclusive results and toxic doses are left out.
Property Label: T/C

Asked: Give the measured T/C of O=CN1CCCC1Cc1ccc2ccccc2c1 (stereo not drawn) .
Given back: 98 % of control

Asked: Tell me the measured T/C of Cc1cc2[nH]c(Cl)c(/C=N/NC(N)=S)c2cc1O , please.
Given back: 99 % of control

Pending compound:
Asked: Which value of T/C has been reported for CCCC1CC2=C(C(=O)c3c(OC)cccc3C2=O)C(O)(C(F)(F)F)O1 (stereo not drawn) in the records?
Given back: 103 % of control

====

Recorded T/C, one value per entry.
Tested on: P388 leukemia ip, CD2F1 mice, survival T/C
Test: NCI In Vivo Anticancer Drug Screen. Data for tumor model P388 Leukemia (intraperitoneal) in CD2F1 (CDF1) mice
Settings: endpoint: median survival time; dose: 200.0 mg/kg/injection; schedule: Q04DX003 (ip); vehicle: saline with Tween-80; higher = longer survival
Toxic doses and inconclusive results are not listed.

Use these answered entries as a reference point.
Asked: Checklist item: T/C tested on P388 leukemia ip, CD2F1 mice, survival T/C, entry Cc1cccc(N2CCN(S(C)(=O)=O)CC2)c1 , value?
Given back: 102 % of control

Asked: For P388 leukemia ip, CD2F1 mice, survival T/C, provide T/C of CCOC(=O)C(CC)C1=CCCCC1 (stereo unspecified) please.
Given back: 100 % of control

***
Asked: Fill in the recorded T/C for this compound, with P388 leukemia ip, CD2F1 mice, survival T/C as test system: CCOC(=O)Cn1cnc2cc(C)c(C)cc21
Given back: 100 % of control

Asked: // map Cc1cccc(C)c1NC(=S)N1CCC(CCCC2CCN(C(=S)Nc3c(C)cccc3C)CC2)CC1 to recorded T/C (system: P388 leukemia ip, CD2F1 mice, survival T/C)
Given back: 86 % of control

Asked: Request body: readout T/C, system P388 leukemia ip, CD2F1 mice, survival T/C, query O=C1CCc2nc(-c3ccccc3)ncc21 . Return the value.
Given back: 89 % of control

Asked: Given the entry COc1ccc(Br)cc1/C=N\NS(=O)(=O)c1ccc(C)cc1 , what T/C was observed with P388 leukemia ip, CD2F1 mice, survival T/C?
Given back: 100 % of control

====

Property: T/C; scope: individual compounds
Tested on: P388 leukemia ip, CD2F1 mice, survival T/C
Test: NCI In Vivo Anticancer Drug Screen. Data for tumor model P388 Leukemia (intraperitoneal) in CD2F1 (CDF1) mice
Conditions: endpoint: median survival time; dose: 400.0 mg/kg/injection; schedule: Q01DX001 (ip); vehicle: Klucel (hydroxypropylcellulose) (HPC); higher = longer survival
Toxic doses and inconclusive results are not listed.

See these solved cases before continuing.
Asked: What does the data say about its T/C? Entry: CC(C)(C)/C=C/N=NNc1ccccn1
Given back: 94 % of control

Asked: What value of measured T/C is listed for Cc1ccc(OP(=O)(Oc2ccc(C)cc2)Oc2ccc(C)cc2)cc1.Cc1ccc(OP(=O)(Oc2ccc(C)cc2)Oc2ccc(C)cc2)cc1.Cc1ccc(OP(=O)(Oc2ccc(C)cc2)Oc2ccc(C)cc2)cc1.Cc1ccc(OP(=O)(Oc2ccc(C)cc2)Oc2ccc(C)cc2)cc1.[Co+2].[O-][Cl+3]([O-])([O-])O ?
Given back: 97 % of control

Asked: Bench note: what T/C did O=c1ccn2c(=O)n1CCCCn1cnc3ncnc(c31)SCCC2 show?
Given back: 90 % of control

Asked: Any idea what its T/C is? The compound is CC(=O)Nc1cccc2c(C)cc(=O)[nH]c12
Given back: 98 % of control

Asked: # input compound: NC(=O)CCCC(C(N)=O)c1ccccc1 (configuration not stated) ; wanted: its T/C
Given back: 99 % of control

New cases:
Asked: Which T/C value is on record for CC(=O)C(Cl)C(=O)c1c(-c2ccccc2)[nH]c2ccccc12 (configuration not stated) ?
Given back: 105 % of control

Asked: Can you look up the measured T/C of Cc1ccc(C(C(=O)O)(c2ccc(C)c(C)c2)C(O)C(=O)O)cc1C (configuration not stated) for me?
Given back: 104 % of control
